tested on: SK-OV-3 ovarian; test: NCI tumour cell line growth inhibition, 48 h
Recorded TGI for the following compounds
endpoint: TGI

compound	endpoint	result
C=C1CCC(OC(C)=O)C2(C)C(OC(C)=O)CC3OC3(C)C2C(OC(C)=O)C2C(C)C(=O)OC2C1Cl (stereo unspecified)	TGI	> 100 µM
Cn1cc(-c2nonc2-c2cn(C)c3ccc(F)cc23)c2ccccc21	TGI	> 100 µM
O=C1C(N2CCOCC2)=C(Cl)C(=O)c2ncccc21	TGI	> 10 µM
Nc1cccc(C2CCCc3c2[nH]c2ccccc32)c1 (stereo unspecified)	TGI	70.4 µM
C=C1c2nc3ccccc3n2C=C(c2ccc(OC)cc2)N1c1ccccc1	TGI	> 100 µM
Cc1c2c(nn1-c1ccc(S/N=C3\SCC(=O)CN3Cc3ccccc3)cc1)-c1ccccc1CC2	TGI	> 100 µM
N#C/C(=C/NC(=S)NCc1ccccc1)C(N)=O	TGI	> 100 µM
O=C1/C(=C\c2ccc(Cl)cc2)CCOc2c1ccc1ccccc21	TGI	> 100 µM
O=C1C(Br)=CC2C1C1C3CCC3C2(Br)C12OCCO2 (stereo unspecified)	TGI	15.3 µM
C1OC1C1CO1 (stereo unspecified)	TGI	> 100 µM
O=c1oc2ccc(Br)cc2c(=O)n1-c1ccc(Br)cc1F	TGI	4.97 µM
